Measured values drawn from paper PMC7305236 for this set.

Molecular target: ACKR4 (Homo sapiens)
Sequence (Q9NPB9 whole entry): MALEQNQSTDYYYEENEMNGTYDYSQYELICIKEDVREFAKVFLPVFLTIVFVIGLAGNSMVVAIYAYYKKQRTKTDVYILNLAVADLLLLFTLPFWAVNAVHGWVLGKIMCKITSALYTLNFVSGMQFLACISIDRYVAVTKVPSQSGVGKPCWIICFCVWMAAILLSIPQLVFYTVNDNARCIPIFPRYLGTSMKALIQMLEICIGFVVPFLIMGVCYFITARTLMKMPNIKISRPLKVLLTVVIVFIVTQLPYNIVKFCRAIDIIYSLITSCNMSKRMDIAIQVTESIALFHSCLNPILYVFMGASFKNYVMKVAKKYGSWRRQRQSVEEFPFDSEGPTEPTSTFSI
Test: Figure S2a opioid peptide screen on chemokine receptors
Parameters: dose or concentration left out as unconfirmed
Details: read-out: ACKR4 activity, ctrl+ = 100, Figure S2a; replicate 2
Parameter activation: see the listing below.
Use % as the unit, but write only the number.

molecule	target_entity	unit	activation
CC(C)C[C@H](NC(=O)[C@H](CCCCN)NC(=O)[C@H](CCCN=C(N)N)NC(=O)[C@H](C)NC(=O)[C@H](CO)NC(=O)[C@H](CCCCN)NC(=O)[C@H](CCCN=C(N)N)NC(=O)[C@H](C)NC(=O)CNC(=O)[C@@H](NC(=O)[C@H](Cc1ccccc1)NC(=O)CNC(=O)CNC(=O)[C@@H](N)Cc1ccccc1)[C@@H](C)O)C(=O)N[C@@H](C)C(=O)N[C@@H](CC(N)=O)C(=O)N[C@@H](CCC(N)=O)C(=O)O	ACKR4 (Homo sapiens)	%	-5.23
NC(=O)[C@H](Cc1ccccc1)NC(=O)[C@H](Cc1c[nH]c2ccccc12)NC(=O)[C@@H]1CCCN1C(=O)[C@@H](N)Cc1ccc(O)cc1 [Endomorphin-1]	ACKR4 (Homo sapiens)	%	1.77
CC[C@H](C)[C@H](NC(=O)[C@H](CCCNC(=N)N)NC(=O)[C@H](CCCNC(=N)N)NC(=O)[C@H](CC(C)C)NC(=O)[C@H](Cc1ccccc1)NC(=O)CNC(=O)CNC(=O)[C@@H](N)Cc1ccc(O)cc1)C(=O)N[C@@H](CCCNC(=N)N)C(=O)N1CCC[C@H]1C(=O)N[C@@H](CCCCN)C(=O)N[C@@H](CC(C)C)C(=O)N[C@@H](CCCCN)C(=O)N[C@@H](Cc1c[nH]c2ccccc12)C(=O)N[C@@H](CC(=O)O)C(=O)N[C@@H](CC(N)=O)C(=O)N[C@@H](CCC(N)=O)C(=O)O	ACKR4 (Homo sapiens)	%	-4.52

Req: Record request: activation value, item C[C@H](NC(=O)CNC(=O)[C@@H](NC(=O)[C@H](Cc1ccccc1)NC(=O)CNC(=O)CNC(=O)[C@@H](N)Cc1ccccc1)[C@@H](C)O)C(=O)N[C@@H](CCCNC(=N)N)C(=O)N[C@@H](CCCCN)C(=O)N[C@@H](CO)C(=O)N[C@@H](C)C(=O)N[C@@H](CCCNC(=N)N)C(=O)N[C@@H](CCCCN)C(N)=O
Resp: -5.01
